IC50 by entry:
target: LPA2 receptor (Homo sapiens, UniProt Q9HBW0); assay: LPA2R-calciumflux assay; conditions: U2OS cells recombinant expressing LPA2R; LPA-induced intracellular calcium signal (FLIPR Tetra); 10 concentrations from 30 uM to 1 nM, 1% DMSO
Sequence (Q9HBW0 whole entry): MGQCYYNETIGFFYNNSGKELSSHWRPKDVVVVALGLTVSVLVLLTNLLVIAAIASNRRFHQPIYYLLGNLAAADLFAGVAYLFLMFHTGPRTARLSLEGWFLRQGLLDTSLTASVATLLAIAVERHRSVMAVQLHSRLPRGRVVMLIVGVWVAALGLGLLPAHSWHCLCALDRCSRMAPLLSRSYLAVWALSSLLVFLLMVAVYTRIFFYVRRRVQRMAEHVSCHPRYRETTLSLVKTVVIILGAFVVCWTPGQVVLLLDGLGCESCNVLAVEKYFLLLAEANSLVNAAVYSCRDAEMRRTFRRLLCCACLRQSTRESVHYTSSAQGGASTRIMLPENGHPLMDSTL

Recorded IC50, per entry:
INSERT INTO assay_data (compound, system_under_test, property_measured, result) VALUES
  ('O=C1Nc2[nH]nc(-c3ccccc3)c2C(O)(C(F)(F)F)C1CCO (stereo not shown)', 'LPA2 receptor (Homo sapiens, UniProt Q9HBW0)', 'IC50', '> 10 µM'),
  ('Cn1nc(-c2ccc(Cl)cc2)c2c1NC(=O)CC2(O)C(F)(F)F (stereo not shown)', 'LPA2 receptor (Homo sapiens, UniProt Q9HBW0)', 'IC50', '> 10 µM'),
  ('COc1ccc(-c2n[nH]c3c2C(O)(C(F)(F)F)CC(=O)N3)cc1 (stereo not shown)', 'LPA2 receptor (Homo sapiens, UniProt Q9HBW0)', 'IC50', '< 1 µM'),
  ('O=C1CC(O)(C(F)(F)F)c2c(-c3ccc(Br)cc3)n[nH]c2N1 (stereo not shown)', 'LPA2 receptor (Homo sapiens, UniProt Q9HBW0)', 'IC50', '> 10 µM'),
  ('COc1cc(OC)cc(-c2n[nH]c3c2C(O)(C(F)(F)F)CC(=O)N3)c1 (stereo not shown)', 'LPA2 receptor (Homo sapiens, UniProt Q9HBW0)', 'IC50', '< 1 µM'),
  ('O=C1C[C@@](O)(C(F)(F)F)c2c(-c3cccc(F)c3)n[nH]c2N1', 'LPA2 receptor (Homo sapiens, UniProt Q9HBW0)', 'IC50', '< 1 µM');

Sure, the documented IC50 for O=C1CC(O)(C(F)(F)F)c2c(-c3cccc(F)c3)n[nH]c2N1 (stereo not shown) is < 1 µM

Given item O=C1CC(O)(C(F)(F)F)c2c(Cc3ccccc3)n[nH]c2N1 (stereo not shown) , the value recorded as its IC50 is > 10 µM

IC50 recorded for this compound, CC1C(=O)Nc2[nH]nc(-c3ccccc3)c2C1(O)C(F)(F)F (stereo not shown) , is 1 to 10 µM

get_value(item= O=C1CC(O)(C(F)(F)F)c2c(-c3ccco3)n[nH]c2N1 (stereo not shown) , readout=IC50) returns > 10 µM

Sure, the documented IC50 for Cc1ccc(-c2n[nH]c3c2C(O)(C(F)(F)F)CC(=O)N3)cc1 (stereo not shown) is < 1 µM

Looking up O=C1CC(O)(C(F)(F)F)c2c(-c3cccc(Cl)c3)n[nH]c2N1 (stereo not shown) , I found its IC50 recorded as < 1 µM

Noted for O=C1CC(O)(C(F)(F)F)c2c(C3CC3)n[nH]c2N1 (stereo not shown) : its IC50 reads > 10 µM

Field IC50 (entry O=C1CC(O)(C(F)(F)F)c2c(-c3cccs3)n[nH]c2N1 (stereo not shown) ) reads < 1 µM

// field: IC50; key: Cc1c(-c2n[nH]c3c2C(O)(C(F)(F)F)CC(=O)N3)cnn1C (stereo not shown) ; value = 1 to 10 µM

Reported IC50 for O=C1CC(O)(C(F)(F)F)c2c(-c3cccc(Br)c3)n[nH]c2N1 (stereo not shown) was < 1 µM

The reported value for COc1cccc(-c2n[nH]c3c2C(O)(C(F)(F)F)CC(=O)N3)c1 (stereo not shown) in terms of IC50 is 1 to 10 µM

Quick note, IC50 for `O=C1C[C@](O)(C(F)(F)F)c2c(-c3cccc(F)c3)n[nH]c2N1` landed at > 10 µM

Measured IC50 of COC1C(=O)Nc2[nH]nc(-c3ccccc3)c2C1(O)C(F)(F)F (stereo not shown) : > 10 µM

So for CCC1C(=O)Nc2[nH]nc(-c3ccccc3)c2C1(O)C(F)(F)F (stereo not shown) , the logged IC50 turned out to be > 10 µM

* * *

molecular target: LPA2 receptor (Homo sapiens); assay: LPA2R-calciumflux assay; details: U2OS cells recombinant expressing LPA2R; LPA-induced intracellular calcium signal (FLIPR Tetra); 10 concentrations from 30 uM to 1 nM, 1% DMSO
pIC50: −log10 of the molar value.
Here, each record is paired with measured pIC50 data.

INSERT INTO measurements (molecule, result) VALUES
  ('O=C1CC(O)(C(F)(F)F)c2c(-c3ccccc3)nn(-c3ccccc3)c2N1 (centres unmarked)', '< 5.00'),
  ('Cn1nc(-c2ccccc2)c2c1NC(=O)CC2(O)C(F)(F)F (centres unmarked)', '< 5.00'),
  ('O=C1CC(O)(C(F)(F)F)c2c(-c3cccc(C(F)(F)F)c3)n[nH]c2N1 (centres unmarked)', '> 6.00'),
  ('COc1ccc(-c2n[nH]c3c2C(O)(C(F)(F)F)CC(=O)N3)cc1OC (centres unmarked)', '> 6.00'),
  ('O=C1CC(O)(C(F)(F)F)c2c(-c3ccc(Cl)cc3)n[nH]c2N1 (centres unmarked)', '5.00 to 6.00'),
  ('O=C1CC(O)(C(F)(F)F)c2c(-c3ccc(F)cc3)n[nH]c2N1 (centres unmarked)', '> 6.00');

pIC50 recorded for this molecule, Cn1nc(-c2cccs2)c2c1NC(=O)CC2(O)C(F)(F)F (centres unmarked) , is < 5.00

Given item O=C1CC(O)(C(F)(F)F)c2c(-c3c[nH]c4ccccc34)n[nH]c2N1 (centres unmarked) , the value recorded as its pIC50 is < 5.00

Record O=C1CC(O)(C(F)(F)F)c2c(-c3ccccc3)n[nH]c2N1 (centres unmarked) , field pIC50: > 6.00

* * *

Biological target: LPA2 receptor (Homo sapiens, UniProt Q9HBW0)
Assay: LPA2R-calciumflux assay
Conditions: U2OS cells recombinant expressing LPA2R; LPA-induced intracellular calcium signal (FLIPR Tetra); 10 concentrations from 30 uM to 1 nM, 1% DMSO
Text: Description of the LPA2R Assay Cell Cultivation/Propagation LPA2R-calciumflux Assay Protocol The assay detects intra cellular calcium which is generated by cells upon activation of the LPA2 receptor by its ligand LPA. This transient calcium mobilisation can be monitored using a commercial calcium detection kit (e.g. from Molecular Devices). […] Readers like the FLIPR (from Molecular Devices) can be used to monitor such transient “Ca-flux” signals. […]
Listed molecules paired with reported IC50

INSERT INTO measurements (molecule, property_measured, result) VALUES
  ('CCN1C(=O)CC(O)(C(F)(F)F)c2c(-c3ccccc3)n[nH]c21 (centres unmarked)', 'IC50', '> 10 µM'),
  ('O=C1C[C@](O)(C(F)(F)F)c2c(-c3ccccc3)n[nH]c2N1', 'IC50', '> 10 µM'),
  ('O=C1CC(O)(c2cc(C(F)(F)F)cc(C(F)(F)F)c2)c2c(-c3ccccc3)n[nH]c2N1 (centres unmarked)', 'IC50', '> 10 µM'),
  ('O=C1C[C@@](O)(C(F)(F)F)c2c(-c3ccccc3)n[nH]c2N1', 'IC50', '< 1 µM');

The molecule identified as O=C1CC(O)(C(F)(F)F)c2c(-c3ccncc3)n[nH]c2N1 (centres unmarked) registered its IC50 at < 1 µM

The values you see were collected from patent US9067938B2.
